- Tested on: HT29 colon
- TEST: NCI tumour cell line growth inhibition, 48 h
ENDPOINT LABEL: TGI (µM)

> print(dat)
                                    molecule  relation.symbol  obs.value
 1  COC(=O)c1ccc(OCc2ccc3nc(-c4ccccc4)c(Cl)nc3c2)cc1                >        100
 2              N#CC(=C=[N-])[n+]1ccc(Cl)cc1                =       33.8
 3                 CSc1s[s+]c(SC)c1-c1ccccc1                =       32.3
 4  COc1ccccc1OC/C(N=Cc1ccncc1)=N/NC(=O)c1ccncc1                >        100
 5  COc1cc(C2S/C(=C/c3ccccc3)C(=O)N2c2ccc(Cl)cc2)cc(OC)c1OC (stereo not given)                >       75.9
 6  Cc1cc2c(cc1Cl)SC1=NN(C)C(c3ccccc3O)N1S2(=O)=O (stereo not given)                >        100
 7  Cc1c(-c2coc(-c3ccc(Cl)cc3)n2)c(=O)n(-c2ccccc2)n1C                >        100
 8  C=C(C)[C@@H]1CCC[C@]2(C(=O)O)CC[C@]3(C)[C@@H](CC[C@@H]4[C@@]5(C)C/C(=C/c6ccncc6)C(=O)C(C)(C)[C@@H]5CC[C@]43C)[C@@H]12                =        9.5
 9  Cn1cc(-c2nn3cc(-c4cccs4)nc3s2)c2cc(F)ccc21                =       14.8
10  COC(=O)C1(Cc2ccccc2)Cc2ccccc2C1=O (stereo not given)                >        100

Data origin, for the record: PubChem BioAssay (NCI)
